# Tested on: Histophilus somni
# MEASUREMENT PROTOCOL: minimum inhibitory concentration (MIC)
# ASSAY CONDITIONS: isolate (source animal id): 53
MEASUREMENT LABEL: minimum inhibitory concentration

Previously resolved entries follow.
COc1cc(NS(=O)(=O)c2ccc(N)cc2)nc(OC)n1 | > 256 µg/mL
CC[C@H]1OC(=O)C[C@@H](O)[C@H](C)[C@@H](O[C@@H]2O[C@H](C)[C@@H](O[C@H]3C[C@@](C)(O)[C@@H](O)[C@H](C)O3)[C@H](N(C)C)[C@H]2O)[C@@H](CC=O)C[C@@H](C)C(=O)/C=C/C(C)=C/[C@@H]1CO[C@@H]1O[C@H](C)[C@@H](O)[C@@H](OC)[C@H]1OC | 16 µg/mL

Q: I'd like to know its minimum inhibitory concentration. The compound in question is CN[C@@H]1[C@H](O)[C@H](NC)[C@H]2O[C@@]3(O)C(=O)C[C@@H](C)O[C@H]3O[C@@H]2[C@H]1O
Ans: ≤ 8 µg/mL

Q: I'd like to know its minimum inhibitory concentration. The compound in question is CNC(C)C1CCC(N)C(OC2C(N)CC(N)C(OC3OCC(C)(O)C(NC)C3O)C2O)O1 (stereo unspecified)
Ans: 4 µg/mL

Q: I'd like to know its minimum inhibitory concentration. The compound in question is CC[C@H]1OC(=O)C[C@@H](O)[C@H](C)[C@@H](O[C@@H]2O[C@H](C)[C@@H](O)[C@H](N(C)C)[C@H]2O)[C@@H](CCN2CCCCC2)C[C@@H](C)C(=O)/C=C/C(C)=C/[C@@H]1CN1CCCCC1
Ans: 4 µg/mL

Q: I'd like to know its minimum inhibitory concentration. The compound in question is CN1C[C@@H]2C[C@H]1CN2c1cc2c(cc1F)c(=O)c(C(=O)O)cn2C1CC1
Ans: ≤ 0.12 µg/mL

====

Listed next: entries and their corresponding minimum inhibitory concentration.
# Tested on: Mannheimia haemolytica
# MEASUREMENT PROTOCOL: minimum inhibitory concentration (MIC)
# ASSAY CONDITIONS: isolate (source animal id): 34
Just the number in µg/mL, nothing appended.

Q: I'd like to know its minimum inhibitory concentration. The compound in question is CN(C)[C@@H]1C(O)=C(C(N)=O)C(=O)[C@@]2(O)C(O)=C3C(=O)c4c(O)cccc4[C@@](C)(O)[C@H]3C[C@@H]12
Ans: 8

Q: I'd like to know its minimum inhibitory concentration. The compound in question is CN[C@@H]1[C@H](O)[C@H](NC)[C@H]2O[C@@]3(O)C(=O)C[C@@H](C)O[C@H]3O[C@@H]2[C@H]1O
Ans: 32

====

# Test system: Pasteurella multocida
# MEASUREMENT PROTOCOL: minimum inhibitory concentration (MIC)
# ASSAY CONDITIONS: isolate (source animal id): 241
Listed next: entries and their corresponding minimum inhibitory concentration.

Previously resolved entries follow.
COc1cc(Cc2cnc(N)nc2N)cc(OC)c1OC.Cc1cc(NS(=O)(=O)c2ccc(N)cc2)no1 [trimethoprim-sulfamethoxazole] | ≤ 2 µg/mL
CCN1CCN(c2cc3c(cc2F)c(=O)c(C(=O)O)cn3C2CC2)CC1 [Enrofloxacin] | > 2 µg/mL
CC[C@H]1OC(=O)C[C@@H](O)[C@H](C)[C@@H](O[C@@H]2O[C@H](C)[C@@H](O)[C@H](N(C)C)[C@H]2O)[C@@H](CCN2CCCCC2)C[C@@H](C)C(=O)/C=C/C(C)=C/[C@@H]1CN1CCCCC1 [Tildipirosin] | > 16 µg/mL
CCC[C@@H]1C[C@@H](C(=O)N[C@@H]([C@H]2O[C@H](SC)[C@H](O)[C@@H](O)[C@H]2O)[C@H](C)Cl)N(C)C1 [Clindamycin] | > 16 µg/mL

Now consider the entry below.
Q: API: value(readout= minimum inhibitory concentration, system= Pasteurella multocida, query= NC[C@@H]1O[C@H](O[C@H]2[C@@H](O)[C@H](O[C@@H]3[C@@H](O)[C@H](N)C[C@H](N)[C@H]3O[C@H]3O[C@H](CN)[C@@H](O)[C@H](O)[C@H]3N)O[C@@H]2CO)[C@H](N)[C@@H](O)[C@@H]1O [Neomycin] )
Ans: > 32 µg/mL

====

# Tested on: Histophilus somni
# MEASUREMENT PROTOCOL: minimum inhibitory concentration (MIC)
# ASSAY CONDITIONS: isolate (source animal id): 127
MEASUREMENT LABEL: minimum inhibitory concentration (µg/mL)
Just the number in µg/mL, nothing appended.

CC[C@H]1OC(=O)C[C@@H](O)[C@H](C)[C@@H](O[C@@H]2O[C@H](C)[C@@H](O[C@H]3C[C@@](C)(O)[C@@H](O)[C@H](C)O3)[C@H](N(C)C)[C@H]2O)[C@@H](CC=O)C[C@@H](C)C(=O)/C=C/C(C)=C/[C@@H]1CO[C@@H]1O[C@H](C)[C@@H](O)[C@@H](OC)[C@H]1OC | 8

Q: API: value(readout= minimum inhibitory concentration, system= Histophilus somni, query= NC[C@@H]1O[C@H](O[C@H]2[C@@H](O)[C@H](O[C@@H]3[C@@H](O)[C@H](N)C[C@H](N)[C@H]3O[C@H]3O[C@H](CN)[C@@H](O)[C@H](O)[C@H]3N)O[C@@H]2CO)[C@H](N)[C@@H](O)[C@@H]1O )
Ans: 32

====

Listed next: entries and their corresponding minimum inhibitory concentration.
# System: Pasteurella multocida
# MEASUREMENT PROTOCOL: minimum inhibitory concentration (MIC)
# ASSAY CONDITIONS: isolate (source animal id): 237

Previously resolved entries follow.
CC[C@H]1OC(=O)C[C@@H](O)[C@H](C)[C@@H](O[C@@H]2O[C@H](C)[C@@H](O)[C@H](N(C)C)[C@H]2O)[C@@H](CCN2CCCCC2)C[C@@H](C)C(=O)/C=C/C(C)=C/[C@@H]1CN1CCCCC1 | > 16 µg/mL
NC[C@@H]1O[C@H](O[C@H]2[C@@H](O)[C@H](O[C@@H]3[C@@H](O)[C@H](N)C[C@H](N)[C@H]3O[C@H]3O[C@H](CN)[C@@H](O)[C@H](O)[C@H]3N)O[C@@H]2CO)[C@H](N)[C@@H](O)[C@@H]1O | > 32 µg/mL
CN[C@@H]1[C@H](O)[C@H](NC)[C@H]2O[C@@]3(O)C(=O)C[C@@H](C)O[C@H]3O[C@@H]2[C@H]1O | 32 µg/mL

Q: I'd like to know its minimum inhibitory concentration. The compound in question is CC[C@H]1OC(=O)C[C@@H](O)[C@H](C)[C@@H](O[C@@H]2O[C@H](C)[C@@H](O)[C@H](N(C)C)[C@H]2O)[C@@H](CCN2C[C@H](C)C[C@H](C)C2)C[C@@H](C)C(=O)/C=C/C(C)=C/[C@@H]1CO[C@@H]1O[C@H](C)[C@@H](O)[C@@H](OC)[C@H]1OC
Ans: > 16 µg/mL

====

# Test system: Histophilus somni
# MEASUREMENT PROTOCOL: minimum inhibitory concentration (MIC)
# ASSAY CONDITIONS: isolate (source animal id): 124
Listed next: entries and their corresponding minimum inhibitory concentration.

CC[C@H]1OC(=O)C[C@@H](O)[C@H](C)[C@@H](O[C@@H]2O[C@H](C)[C@@H](O)[C@H](N(C)C)[C@H]2O)[C@@H](CCN2CCCCC2)C[C@@H](C)C(=O)/C=C/C(C)=C/[C@@H]1CN1CCCCC1 | 2 µg/mL

Q: I'd like to know its minimum inhibitory concentration. The compound in question is CCCNC[C@]1(O)[C@H](C)O[C@@H](O[C@H]2[C@H](C)[C@@H](O[C@@H]3O[C@H](C)C[C@H](N(C)C)[C@H]3O)[C@](C)(O)C[C@@H](C)CN[C@H](C)[C@@H](O)[C@](C)(O)[C@@H](CC)OC(=O)[C@@H]2C)C[C@@]1(C)OC
Ans: ≤ 8 µg/mL

====

# Test system: Histophilus somni
# MEASUREMENT PROTOCOL: minimum inhibitory concentration (MIC)
# ASSAY CONDITIONS: isolate (source animal id): 208
MEASUREMENT LABEL: minimum inhibitory concentration (µg/mL)
Just the number in µg/mL, nothing appended.

CC[C@H]1OC(=O)C[C@@H](O)[C@H](C)[C@@H](O[C@@H]2O[C@H](C)[C@@H](O)[C@H](N(C)C)[C@H]2O)[C@@H](CCN2C[C@H](C)C[C@H](C)C2)C[C@@H](C)C(=O)/C=C/C(C)=C/[C@@H]1CO[C@@H]1O[C@H](C)[C@@H](O)[C@@H](OC)[C@H]1OC | 8

Now consider the entry below.
Q: I'd like to know its minimum inhibitory concentration. The molecule in question is CNC(C)C1CCC(N)C(OC2C(N)CC(N)C(OC3OCC(C)(O)C(NC)C3O)C2O)O1 (centres undefined)
Ans: 8
